Assay: protein stability index of a GFP-peptide fusion (GPS, HEK-293T) (PSI 1-6); higher = more stable;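 further: 24-mer peptide tiles fused after GFP, lentivirally expressed, FACS-sorted into six equal bins by GFP/DsRed ratio, decoded by Illumina sequencing, PSI is the read-weighted mean bin number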
Details: treatment: DMSO; c terminus: a fixed tail appended
recorded_endpoint: protein stability index
Provide a numeric answer; units are not to be included.

FCIDSENRIGNSGVEEIKGHPFFE [STK38L]; 2.97

With those in mind, consider the next sequence.
For reference, reported protein stability index for VRLLLEFKAEVDPLSDKGTTPLQL [ASB7] stands at 2.16

====

Assay: protein stability index of a GFP-peptide fusion (GPS, HEK-293T) (PSI 1-6); higher = more stable
Details: treatment: MLN4924 1 uM, 8 h; c terminus: a fixed tail appended
Mark Yes for reported protein stability index of 4 or greater; mark No for anything smaller.

# count of solved cases: 5
EETESSDDVEVLTLKKFKGDLAYR [C8orf76]; Yes
KLATQHKQLISQTKKKQWCYNCEE [ZMYND11]; No
TETDSLVSAQRERPRRRDGPEHAT [DVL3]; Yes
PEVTSALLESLNQQRLQGQLCDVS [ZBTB22]; No
AQLSELRCEMEAQNQEYKMLLDIK [KRT15]; No

Hi, just wondering whether CLTQSTAAPAVRASSSPVTLRQKT [SLA] shows protein stability index of 4 or higher.
Yes

Entry FPDLNTYIYYNEKYGGPNHHLPLP [CPN1] : is its protein stability index no less than 4?
No

Is reported protein stability index greater than or equal to 4 here: FTEAMTHFPASPFWSVMFFLMLIN [SLC6A17]
No
